Please respond with reported IC50 for every item in the list.
# measurementTarget: PDE5A1 (Homo sapiens)
# Construct: from tissue; host or cells: human platelets from fresh donor blood (10,000 x g supernatant of sonicated lysate)
# assayProtocol: Inhibition of type 5 phosphodiesterase (PDE5) activity, modified SPA test with human platelet lysate
# Type: biochemical
# cond: 0.5 μM cGMP, read-out: PDE5A1 inhibitory values [measured as −log IC50 (mol/l)] (converted)
# Method: Method for Measuring Inhibition of the Type 5 Phosphodiesterase (PDE5) Activity: As a source for human PDE5, platelets are used. For that purpose, 150 ml fresh blood from human donors anticoagulated with citrate [final concentration 0.3% (w/v)] is centrifuged at 200 g for 10 min to obtain the so-called platelet-rich-plasma (PRP) as a supernatant. 1/10 volume of ACD solution (85 mM Na3-citrate, 111 mM D-glucose, 71 mM citric acid, pH 4.4) is added to 9/10 volume of PRP. […]

Request: PDE5A1 (Homo sapiens) / IC50 / COc1cc(OCC2CC2)c(-c2ncnc3c(C(=O)NC4CCN(C(=O)[C@H](C)O)CC4)c(C)[nH]c23)cc1F [Example F84] : value?
Response: < 1 nM

Request: PDE5A1 (Homo sapiens) / IC50 / CC(=O)N1CCC(NC(=O)c2c(C)[nH]c3c(-c4ccc(F)cc4OCC4CC4)ncnc23)CC1 [Example E19] : value?
Response: < 1 nM

Request: PDE5A1 (Homo sapiens) / IC50 / Cc1[nH]c2c(-c3cc(C(C)C)ccc3OCC3CC3)ncnc2c1C(=O)NC1CCN(C(=O)[C@H](C)O)CC1 [Example F99] : value?
Response: < 1 nM

Request: PDE5A1 (Homo sapiens) / IC50 / COCC(=O)N1CC[C@@H](NC(=O)c2c(C)[nH]c3c(-c4cc(OC)c(F)cc4OCC4CC4)ncnc23)C1 [Example E181] : value?
Response: < 1 nM

Request: PDE5A1 (Homo sapiens) / IC50 / CCC(=O)N[C@H]1CC[C@H](NC(=O)c2c(C)[nH]c3c(-c4cc(C(F)F)ccc4OCC4CC4)ncnc23)CC1 [Example P7] : value?
Response: < 1 nM

Request: PDE5A1 (Homo sapiens) / IC50 / COCC(=O)N[C@H]1CC[C@H](NC(=O)c2c(C)[nH]c3c(-c4cc(C(F)F)ccc4OCC4CC4)ncnc23)[C@@H](C)C1 (relative stereo) [Example P141] : value?
Response: < 1 nM

Request: PDE5A1 (Homo sapiens) / IC50 / CCC(=O)N1C[C@@H](O)[C@H](NC(=O)c2c(C)[nH]c3c(-c4cc(F)c(OC)cc4OCC4CC4)ncnc23)C1 (relative stereo) [Example E190] : value?
Response: < 1 nM

Request: PDE5A1 (Homo sapiens) / IC50 / CCOc1ccc(F)cc1-c1ncnc2c(C(=O)NC3CCN(C(C)=O)CC3)c(C)[nH]c12 [Example E52] : value?
Response: 1 to 10 nM

Request: PDE5A1 (Homo sapiens) / IC50 / CCC(=O)N1CCC(NC(=O)c2c(C)[nH]c3c(-c4cc(C(F)(F)F)ccc4OCC4CC4)ncnc23)CC1 [Example E91] : value?
Response: < 1 nM

Request: PDE5A1 (Homo sapiens) / IC50 / COc1cc(-c2nc(C)nc3c(C(=O)NC4CCN(C(=O)[C@H](C)O)CC4)c(C)[nH]c23)c(OCC2CC2)cc1F [Example F110] : value?
Response: < 1 nM

Request: PDE5A1 (Homo sapiens) / IC50 / COCC(=O)N[C@H]1CC[C@H](NC(=O)c2c(C)[nH]c3c(-c4cc(C(F)F)ccc4OCC4CC4)ncnc23)C[C@@H]1F (relative stereo) [Example P211] : value?
Response: < 1 nM

Request: PDE5A1 (Homo sapiens) / IC50 / CCOc1ccc(F)cc1-c1ncnc2c(C(=O)NC3CCN(C(=O)CC)CC3)c(C)[nH]c12 [Example E53] : value?
Response: 1 to 10 nM

Request: PDE5A1 (Homo sapiens) / IC50 / CCOC(=O)N1CCC(NC(=O)c2c(C)[nH]c3c(-c4cc(F)c(OC)cc4OCC4CC4)ncnc23)CC1 [Example E134] : value?
Response: < 1 nM

* * *

Please respond with reported IC50 for every item in the list.
# measurementTarget: PDE4B1 (Homo sapiens)
# Construct: made in house; host or cells: SF21 insect cells (baculovirus; pCRBac vector), 1000 x g supernatant of homogenate
# Sequence (Q07343 whole entry): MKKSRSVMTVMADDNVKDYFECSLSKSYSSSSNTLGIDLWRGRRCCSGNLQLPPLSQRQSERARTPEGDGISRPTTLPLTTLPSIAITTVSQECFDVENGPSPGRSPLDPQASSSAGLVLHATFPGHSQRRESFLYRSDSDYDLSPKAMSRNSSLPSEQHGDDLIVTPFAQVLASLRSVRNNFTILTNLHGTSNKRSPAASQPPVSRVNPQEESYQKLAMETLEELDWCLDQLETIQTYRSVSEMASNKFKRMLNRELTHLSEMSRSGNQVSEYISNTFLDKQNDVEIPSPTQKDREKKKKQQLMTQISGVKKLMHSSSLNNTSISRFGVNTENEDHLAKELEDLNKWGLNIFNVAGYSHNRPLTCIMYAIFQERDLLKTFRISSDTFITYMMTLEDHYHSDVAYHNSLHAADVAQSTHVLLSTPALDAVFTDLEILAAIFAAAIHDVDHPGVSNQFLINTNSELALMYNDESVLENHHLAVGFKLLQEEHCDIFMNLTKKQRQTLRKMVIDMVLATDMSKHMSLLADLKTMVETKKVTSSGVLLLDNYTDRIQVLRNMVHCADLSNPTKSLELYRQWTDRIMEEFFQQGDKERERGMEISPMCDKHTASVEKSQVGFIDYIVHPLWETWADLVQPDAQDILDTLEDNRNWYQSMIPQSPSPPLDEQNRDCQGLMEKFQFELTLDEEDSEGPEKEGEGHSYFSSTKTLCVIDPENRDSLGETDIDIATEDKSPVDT
# assayProtocol: Inhibition of type 4 phosphodiesterase (PDE4) activity, modified SPA test with recombinant PDE4B1 expressed in SF21 insect cells
# Assay type: biochemical
# cond: recombinant PDE4B1, 0.5 μM cAMP, read-out: PDE4B1 inhibitory values [measured as −log IC50 (mol/l)] (converted)

Request: Please give the measured IC50 for this compound: CCc1ccc(OCC2CC2)c(-c2ncnc3c(C(=O)NC4CCN(C(C)=O)CC4)c(C)[nH]c23)c1 [Example E145]
Response: 0.1 to 1 µM

Request: Please give the measured IC50 for this compound: COc1ccc(OCC2CC2)c(-c2ncnc3c(C(=O)NC4CCC(NC(=O)C(C)O)CC4)c(C)[nH]c23)c1 (stereo not shown) [Example F44]
Response: 0.1 to 1 µM

Request: Please give the measured IC50 for this compound: COCC(=O)N[C@H]1CC[C@H](NC(=O)c2c(C)[nH]c3c(-c4cc(F)ccc4OCC4CC4)ncnc23)CC1 [Example E43]
Response: < 0.1 µM

Request: Please give the measured IC50 for this compound: CCC(=O)N1CCC(NC(=O)c2c(C)[nH]c3c(-c4cc(C(F)F)ccc4OCC4CC4)ncnc23)CC1 [Example P2]
Response: < 0.1 µM

* * *

# measurementTarget: PDE5A1 (Homo sapiens, UniProt O76074)
# Construct: from tissue; host or cells: human platelets from fresh donor blood (10,000 x g supernatant of sonicated lysate)
# assayProtocol: Inhibition of type 5 phosphodiesterase (PDE5) activity, modified SPA test with human platelet lysate
# Assay type: biochemical
# cond: 0.5 μM cGMP, read-out: PDE5A1 inhibitory values [measured as −log IC50 (mol/l)] (converted)
# Protocol: Method for Measuring Inhibition of the Type 5 Phosphodiesterase (PDE5) Activity: As a source for human PDE5, platelets are used. For that purpose, 150 ml fresh blood from human donors anticoagulated with citrate [final concentration 0.3% (w/v)] is centrifuged at 200 g for 10 min to obtain the so-called platelet-rich-plasma (PRP) as a supernatant. 1/10 volume of ACD solution (85 mM Na3-citrate, 111 mM D-glucose, 71 mM citric acid, pH 4.4) is added to 9/10 volume of PRP. […]
reportedMetric: IC50

Request: Please give the measured IC50 for this compound: COCC(=O)N1CCC(NC(=O)c2c(C)[nH]c3c(-c4cc(OC)c(F)cc4OCC4CC4)ncnc23)CC1
Response: < 1 nM

Request: Please give the measured IC50 for this compound: CC(=O)N[C@@H]1CC[C@@H](NC(=O)c2c(C)[nH]c3c(-c4cc(C(F)F)ccc4OCC4CC4)ncnc23)[C@H](F)C1 (relative stereo)
Response: < 1 nM

Request: Please give the measured IC50 for this compound: CCC(=O)N[C@H]1CC[C@H](NC(=O)c2c(C)[nH]c3c(-c4cc(F)c(OC)cc4OCC4CC4)ncnc23)CC1
Response: < 1 nM

Request: Please give the measured IC50 for this compound: COc1ccc(OCC2CC2)c(-c2ncnc3c(C(=O)N[C@@H]4CN(C(=O)CO)C[C@H]4O)c(C)[nH]c23)c1 (relative stereo)
Response: 1 to 10 nM

Request: Please give the measured IC50 for this compound: CC(=O)N[C@H]1CC[C@H](NC(=O)c2c(C)[nH]c3c(-c4cc(C(F)F)ccc4OCC4CC4)ncnc23)CC1
Response: < 1 nM

Request: Please give the measured IC50 for this compound: CCOc1ccc(F)cc1-c1ncnc2c(C(=O)NC3CCN(C(=O)CO)CC3)c(C)[nH]c12
Response: 1 to 10 nM

* * *

Please respond with reported IC50 for every item in the list.
# measurementTarget: PDE4B1 (Homo sapiens)
# Construct: made in house; host or cells: SF21 insect cells (baculovirus; pCRBac vector), 1000 x g supernatant of homogenate
# assayProtocol: Inhibition of type 4 phosphodiesterase (PDE4) activity, modified SPA test with recombinant PDE4B1 expressed in SF21 insect cells
# Type: biochemical
# cond: recombinant PDE4B1, 0.5 μM cAMP, read-out: PDE4B1 inhibitory values [measured as −log IC50 (mol/l)] (converted)

Request: PDE4B1 (Homo sapiens) / IC50 / Cc1[nH]c2c(-c3cc(C(F)(F)F)ccc3OCC3CC3)ncnc2c1C(=O)NC1CCN(C(=O)CO)CC1 : value?
Response: < 0.1 µM

Request: PDE4B1 (Homo sapiens) / IC50 / COCC(=O)N[C@H]1C[C@@H](F)[C@H](NC(=O)c2c(C)[nH]c3c(-c4cc(C(F)F)ccc4OCC4CC4)ncnc23)C1 (relative stereo) : value?
Response: < 0.1 µM

Request: PDE4B1 (Homo sapiens) / IC50 / COc1ccc(OCC2CC2)c(-c2ncnc3c(C(=O)NC4CCN(C(C)=O)CC4)c(C)[nH]c23)c1 : value?
Response: 0.1 to 1 µM
